Hello, the source for this data is PubChem BioAssay (NCATS), in case you need it.

Assay name: qHTS of pediatric cancer cell lines to identify multiple opportunities for drug repurposing: Primary screen for Rh30 cells (AID 1347107); note: % is set by controls: 0 for no effect and ±100 for the full control effect; nearly all actives have a fitted effect of over 75% in size
Conditions used: Rh30 rhabdomyosarcoma viability, CellTiter-Glo luminescence, 48 h; series mostly up to 46 µM
Results filed as inconclusive are left out. Active and inactive are the calls of the source. Calls come from the whole dose curve; as a rule, active = well fitted cell-killing curve with a large enough effect; inconclusive = small, poorly fitted or top-dose-only effect; inactive = no such curve, though single readings can be large or run the other way.

Molecule	outcome
COc1ccccc1[C@H](c1cccc2ccccc12)[C@@](C)(C#N)C(=O)N1CCC(c2cccc(C(F)(F)F)c2)CC1	inactive
Cc1ccccc1C(C(=O)NC1CCCC1)N(C(=O)Cn1cnc2ccccc21)c1cccc(F)c1 (stereo unspecified)	inactive
Cc1ccc(N(CC2=NCCN2)c2cccc(O)c2)cc1	inactive
O=C(O)CCc1ccc(NCc2cccc(Oc3ccccc3)c2)cc1	inactive
CCCC(CCC)C(=O)O	inactive
O=C(C1CC1)N1CC[C@@H](Cn2c(-c3ccc(-c4ccc5occc5c4)cc3)nc3cnccc32)C1	inactive
N[C@@H]1CONC1=O	inactive
CN(C)C(=O)c1ccc(S(=O)(=O)c2ccc(NC(=O)[C@@](C)(O)C(F)(F)F)c(Cl)c2)cc1	inactive
CC(C[N+](C)(C)C)OC(N)=O (stereo unspecified)	inactive
CNC[C@H](O)c1cccc(O)c1	inactive
CNC(=O)c1ccc(N2C(=S)N(c3ccc(C#N)c(C(F)(F)F)c3)C(=O)C2(C)C)cc1F	inactive

----------
Assay name: qHTS assay for measurement of the activity of small molecule inhibitors on Zika virus induced Caspase-3 activity in human astrocytoma cells (AID 1224859)
Conditions used: SNB-19 ZIKV-induced caspase-3/7, luminescence, 6 h; series mostly up to 45.7 µM
Active and inactive are the calls of the source. Calls follow the shape of the dose curve; as a rule, active = well fitted inhibition curve with a large enough effect; inconclusive = small, poorly fitted or top-dose-only effect; inactive = no such curve, though single readings can be large or run the other way.
Outcomes: true = active, false = inactive

Compound	Group
CN(C)c1ccc(Nc2nc(N)n(C(=O)c3c(F)cccc3F)n2)cc1	false
CCc1ccc(CCOc2ccc(CC3SC(=O)NC3=O)cc2)nc1 (stereo not drawn)	false
CCOc1cc(N2CCC(O)CC2)ccc1Nc1ncc2c(n1)N(C)c1ccccc1C(=O)N2C	false
CC[C@H](Nc1ncnc2nc[nH]c12)c1nc2cccc(F)c2c(=O)n1-c1ccccc1	false
Cn1cnc([N+](=O)[O-])c1Sc1ncnc2nc[nH]c12	false
CCOc1ccn(-c2ccc(F)cc2)c(=O)c1C(=O)Nc1ccc(Oc2ccnc(N)c2Cl)c(F)c1	false
CC(C)C[C@H](NC(=O)[C@@H](O)[C@H](N)Cc1ccccc1)C(=O)O	false
C[C@@H]1CN(Cc2ccc(F)cc2)[C@@H](C)CN1C(=O)c1cc2c(C(=O)C(=O)N(C)C)cn(C)c2cc1Cl	false
NC[C@H](O)c1ccc(O)c(O)c1	false
COc1ccc(-c2ccc3c(N4CCOC[C@H]4C)nc(N4CCOC[C@H]4C)nc3n2)cc1CO	false
O=C(Nc1ccc(F)c(C(F)(F)F)c1)Nc1nnc(-c2ccncc2)s1	false
COc1c(Cl)cc2c([nH]c3cnccc32)c1NC(=O)c1cccnc1C	false
CC(=O)NC(C)c1ccc(Oc2ccc(OC(C)C)cc2)cc1 (stereo not drawn)	false
Cn1cc(-c2ccc3nnc(C(F)(F)c4ccc5ncccc5c4)n3n2)cn1	false
CCN(CC)CCCC(C)Nc1ccnc2cc(Cl)ccc12 (stereo not drawn)	false
CCC(=O)N[C@H]1CC[C@H](C(=O)N(C)c2ccc(-c3nc4ccccc4o3)cc2)C1	false
CC1(C)SCCN(S(=O)(=O)c2ccc(OCC#CCO)cc2)[C@@H]1C(=O)NO	false
COc1ccc2nc(S(=O)Cc3ncc(C)c(OC)c3C)[nH]c2c1 (stereo not drawn)	false
Cc1cnc(NC(=O)C2=C(O)c3ccccc3S(=O)(=O)N2C)s1	false
CS(=O)(=O)c1cccc(CNc2nc(Nc3ccc4c(c3)CCC(=O)N4)ncc2C(F)(F)F)c1	false
O=c1ncn2nc(Sc3ccc(F)cc3F)ccc2c1-c1c(Cl)cccc1Cl	false
O=C(O)[C@@H](c1ccc(OCc2ccc3ccccc3n2)cc1)C1CCCC1	true
CNC[C@H](O)c1cccc(O)c1	false
S=C(NCc1ccc2c(c1)OCO2)N1CCN(c2ncnc3c2oc2ccccc23)CC1	false
CCOc1cc(C(=O)Nc2ccc(Cl)c(-c3nc4ccccc4[nH]3)c2)cc(OCC)c1OCC	false
COc1ccc(COc2cc3oc(=O)c4cc(C(C)O)ccc4c3cc2OC)cc1 (stereo not drawn)	false
CCn1c(-c2nonc2N)nc2c(C#CC(C)(C)O)ncc(OC[C@H]3CCCNC3)c21	false
Nc1ncnc2nc(-c3ccc(N4CCOCC4)nc3)cc(-c3cccc(Br)c3)c12	false

----------
Assay name: qHTS for differential inhibitors of proliferation of Plasmodium falciparum line 7G8 (AID 1815);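 note: parasite growth measured after three days of incubation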
Conditions used: Plasmodium falciparum 7G8 proliferation inhibition; series mostly up to 28.7 µM
Inconclusive results are not listed. Active and inactive are the calls of the source. Calls come from the whole dose curve; as a rule, active = well fitted curve in the direction sought with a large enough effect; inconclusive = small, poorly fitted or top-dose-only effect, or another doubt; inactive = no such curve, though single readings can be large or run the other way.
Outcomes: y for active, n for inactive

Molecule	Group
CC(=O)Oc1ccccc1C(=O)O	n
O=c1[nH]cnc2[nH]ncc12	n
CNC[C@H](O)c1cccc(O)c1	n
C1COC(NC(C2CC2)C2CC2)=N1	y
CC(C)C[C@H](NC(=O)[C@@H](O)[C@H](N)Cc1ccccc1)C(=O)O	y
c1ccc([C@H]2CN3CCSC3=N2)cc1	n
Cc1ccccc1C(OCCN(C)C)c1ccccc1 (configuration not stated)	y

----------
Assay name: Cell Proliferation Assay against the HBL1 Cell Line (AID 651646);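 note: cells exposed to compound for 48 h before reading; 100% = DMSO and 0% = 9.2 µM bortezomib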
Conditions used: HBL1 DLBCL cells; at 46.1 µM (top of the series) unless noted
Lab note: anything with viability, percent of control below 50% is marked true (1); values at 50% or higher are marked false (0).

Structure notation	Group
NC(=O)c1ccc(-c2nc(-c3ccc4c(c3)OCO4)c(-c3ccccn3)[nH]2)cc1	false (0)
c1ccc(-c2nn3c(c2-c2ccnc4cc(OCCN5CCOCC5)ccc24)CCC3)nc1	false (0)
Oc1cccc(-c2nc(N3CCOCC3)c3oc4ncccc4c3n2)c1	true (1)
Cc1ccc2c(c1)C(=O)[C@@]1(O)CCN(c3ccccc3)C1=N2	false (0)
COc1ccc(-c2ccc3c(N4CCOC[C@H]4C)nc(N4CCOC[C@H]4C)nc3n2)cc1CO	false (0)
Cn1cc(-c2ccc3nnc(C(F)(F)c4ccc5ncccc5c4)n3n2)cn1	false (0)
CO[C@@H]1[C@H](N(C)C(=O)c2ccccc2)C[C@H]2O[C@]1(C)n1c3ccccc3c3c4c(c5c6ccccc6n2c5c31)C(=O)NC4	true (1)
CCOc1cc(N2CCC(O)CC2)ccc1Nc1ncc2c(n1)N(C)c1ccccc1C(=O)N2C	true (1)
COc1c(Cl)cc2c([nH]c3cnccc32)c1NC(=O)c1cccnc1C	false (0)
Cc1cc(C=c2sc3nc4ccccc4n3c2=O)c(C)n1-c1ccccc1	true (1)
CC1(C)Cc2c(-c3ccccc3)c(-c3ccc(Cl)cc3)c(CC(=O)O)n2C1	true (1)
COCCNCCCn1c(C(=O)CF)c(-c2ccc(C)cc2)c2c(N)ncnc21	false (0)
Cc1[nH]c(=O)c(C#N)cc1-c1ccc2nccn2c1	false (0)
CC(C)(C)OC(=O)CN(Cc1ccc(Cl)cc1)Cc1ccc([N+](=O)[O-])s1	true (1)
C[C@]1(c2nc3c(C(N)=O)cccc3[nH]2)CCCN1	false (0)

----------
Assay name: qHTS Assay for Identification of Small Molecule Antagonists for NFkB Signaling Pathway (AID 895)
Conditions used: NFkB beta-lactamase reporter cells, FRET ratio 460/530, stimulated with 10 pM TNF alpha; series mostly up to 38.3 µM
Records with an inconclusive call do not appear. Activity calls are given as the source filed them. The call rests on the fitted dose curve; in most records, active means well fitted inhibition curve with a large enough effect in the signal ratio, with a control signal flat (not every such curve was filed as active); inconclusive means small, poorly fitted or top-dose-only effect, or effect the other way, or a change in a side signal; inactive means flat fitted curve, though single readings scatter; the % refers to the signal ratio.
Outcomes: y = active, n = inactive

Structure notation	Group
Nc1ccc(S(=O)(=O)Nc2ccnn2-c2ccccc2)cc1	y
CCCCNc1cc(C(=O)O)cc(S(N)(=O)=O)c1Oc1ccccc1	n
Cc1cnc(NC(=O)C2=C(O)c3ccccc3S(=O)(=O)N2C)s1	n
Cc1oncc1C(=O)Nc1ccc(C(F)(F)F)cc1	n
C[C@]12CCC(=O)C=C1CC[C@@H]1[C@@H]2[C@@H](O)C[C@@]2(C)[C@H]1CC[C@]2(O)C(=O)CO	y
NC(N)=NC(=O)c1nc(Cl)c(N)nc1N	n
Cn1cnc([N+](=O)[O-])c1Sc1ncnc2nc[nH]c12	n

----------
System: HEK293
Assay name: Cytotoxic Profiling of Annotated Libraries Using Quantitative High-Throughput Screening (AID 1296008); note: potency is the fitted concentration of half-maximal effect; nearly all actives have a fitted effect of over 60% in size
Conditions used: Five cell lines viability, CellTiter-Glo ATP luminescence, 48-72 h
Records with an inconclusive call do not appear. Active and inactive are the calls of the source. Calls follow the shape of the dose curve; as a rule, active = well fitted inhibition curve with a large enough effect; inconclusive = small, poorly fitted or top-dose-only effect; inactive = flat fitted curve, though single readings scatter.
# Potency per entry
Endpoint label: Potency

Structure notation	Assay result
COc1ccc(-c2c(-c3ccc(O)cc3O)n[nH]c2C)cc1	27 µM (active)
Cc1cc(Nc2nc(N[C@@H](C)c3ncc(F)cn3)ncc2Cl)n[nH]1	7.31 µM (active)
CCOc1cc(C(=O)Nc2ccc(Cl)c(-c3nc4ccccc4[nH]3)c2)cc(OCC)c1OCC	16.6 µM (active)
Oc1cccc(-c2nc(N3CCOCC3)c3oc4ncccc4c3n2)c1	0.171 µM (active)
CCn1c(-c2nonc2N)nc2cnc(Oc3cccc(NC(=O)c4ccc(OCCN5CCOCC5)cc4)c3)cc21	11.8 µM (active)
Cc1cccc(-c2[nH]c(C(C)(C)C)nc2-c2ccc3nccnc3c2)n1	3.72 µM (active)
CCC(=O)N[C@H]1CC[C@H](C(=O)N(C)c2ccc(-c3nc4ccccc4o3)cc2)C1	20.9 µM (active)
COc1ccccc1-c1cccc(-c2c(O)c3cc(C#N)c(Cl)cc3[nH]c2=O)c1	3.4 µM (active)
CC(C)(N)C(=O)N[C@H](COCc1ccccc1)C(=O)N1CCC2(CC1)CN(S(C)(=O)=O)c1ccccc12	23.5 µM (active)
